- ASSAY_PROCEDURE: Solubility in water
- Type: physicochemical
MEASUREMENT_NAME: Solubility in water

COMPOUND: CCCCC(CC)COC(=O)CC(C(=O)OCC(CC)CCCC)S(=O)(=O)[O-].CCCCC(CC)COC(=O)CC(C(=O)OCC(CC)CCCC)S(=O)(=O)[O-].C[N+](C)(C)CCCCCC[N+](C)(C)C (stereo not shown) [Example 3, Me3N(CH2)6NMe3 Docusate]
MEASUREMENT: Hydrophobic
--
COMPOUND: CCCCC(CC)COC(=O)CC(C(=O)OCC(CC)CCCC)S(=O)(=O)[O-].CCCC[N+](C)(CCCC)CCCC (stereo not shown) [Example 2, Me(n-Bu)3N Docusate]
MEASUREMENT: Hydrophobic
